Reference source: paper PMC8899820

- experimental-details: in vivo
- setup-conditions: Sprague-Dawley, rat, po, 6 g/kg

{"molecule": "O=C1c2cc(O)cc(O)c2C(=O)c2c(O)cc(CO)cc21 [Citreorosein]", "AUC(0-t)": "0.0872 µM·h"}

---

- experimental-details: Tissue distribution of RPM constituents after oral RPM extract
- setup-conditions: female, Sprague-Dawley, rat, uterus, po, 18 g/kg

{"test-smiles": "Cc1cc(O)c2c(c1)C(=O)c1cc(O)cc(O)c1C2=O", "u": "µM·h", "AUC(0-t)": 0.773}

---

- experimental-details: in vivo
- setup-conditions: Sprague-Dawley, rat, po, 18 g/kg

{"test-smiles": "O=C1c2cc(O)cc(O)c2C(=O)c2c(O)cc(CO)cc21", "AUC(0-t) (µM·h)": 0.416}
